- measuredTarget: human PAD4 (Homo sapiens)
- Construct: human PAD4 (NM_012387), A2-P663, was PCR amplified; His-SUMO (N, cleaved yes)
- methodSummary: In vitro PAD4 BAEE biochemical assay
- measurementParameters: BAEE substrate 3 mM, 5 nM PAD4, 2 mM calcium chloride; geometric mean of multiple experiments
pIC50: −log10 of the molar value.
measuredQuantity: pIC50

## Input Param readout= pIC50; system= human PAD4 (Homo sapiens); entry= COc1cc(C(=O)N2C[C@H](N)C[C@H](O)C2)cc2nc(-c3cc4ccc5nc4n3CCCCCCC(C)(C)C(=O)N[C@@H]5C)n(C)c12 [Example 536] ; returns value.
## Output 6.86

## Input Param readout= pIC50; system= human PAD4 (Homo sapiens); entry= COc1cc(C(=O)N2CCC[C@@H](N)[C@H]2C)cc2nc(-c3cc4ccc5nc4n3CCCCCc3cncc(F)c3C(=O)N[C@@H]5C)n(C)c12 [Example 657] ; returns value.
## Output 7.85

## Input Param readout= pIC50; system= human PAD4 (Homo sapiens); entry= COc1cc(C(=O)N2CCC[C@@H](N)[C@H]2C)cc2nc(-c3cc4ccc5c(F)c4n3CCCCCCC(C)(C)C(=O)N[C@@H]5C)n(C)c12 [Example 645] ; returns value.
## Output 7.44

## Input Param readout= pIC50; system= human PAD4 (Homo sapiens); entry= C[C@H]1NC(=O)[C@@H]2C[C@H]2CCCC(F)(F)Cn2c(-c3nc4cc(C(=O)N5C[C@H](N)[C@@H]6CC[C@H]5C6)cc(F)c4n3[C@H]3C[C@H]3F)cc3ccc1nc32 [Example 468] ; returns value.
## Output 7.55

## Input Param readout= pIC50; system= human PAD4 (Homo sapiens); entry= COc1cc(C(=O)N2CCC[C@@H](N)[C@H]2CO)cc2nc(-c3cc4ccc5nc4n3CCCCC[C@@H]3C[C@H]3C(=O)N[C@@H]5C)n(C)c12 [Example 408] ; returns value.
## Output 6.59

P: CC(C)n1c(-c2cc3ccc4nc3n2CCCCCCC(C)(C)C(=O)N[C@@H]4C)nc2cc(C(=O)N[C@H]3CNCC[C@@H]3F)c(F)cc21 [Example 421]
Q: C[C@H]1NC(=O)c2nc3ccccc3nc2CCCCCn2c(-c3nc4cc(C(=O)N5C[C@H](N)[C@@H]6CC[C@H]5C6)cc(F)c4n3C3CC3)cc3ccc1nc32 [Example 839]
R: COc1cc(C(=O)N2C[C@H](N)[C@@H]3CC[C@H]2C3)cc2nc(-c3cc4ccc5nc4n3CCCCCOC(C)(C)C(=O)N[C@@H]5C)n(C)c12 [Example 909]
## Input Rank ascending by pIC50. Provide the labels, sequenced as the question asks.
## Output P, R, Q
(P: 6.52, R: 7.28, Q: 7.89)

I: COC[C@@]12C[C@@H]1CCCCCn1c(-c3nc4cc(C(=O)N5CC[C@@H](OC)[C@@H](N)C5)cc(OC)c4n3C)cc3ccc(nc31)[C@@H](C)NC2=O [Example 865]
II: COc1cc(C(=O)N2CCC[C@@H](N)C2)cc2nc(-c3cc4ccc5nc4n3CCCCOc3ccccc3C(=O)N[C@@H]5C)n(C)c12 [Example 30]
## Input Higher pIC50: I or II ? Reply with the label of the item you choose.
## Output I

a: COc1cc(C(=O)N2[C@H]3CC[C@@H]2[C@H](N)C3)cc2nc(-c3cc4ccc5nc4n3CCCCCCC(C)(C)C(=O)N[C@@H]5C)c(C)n12 [Example 121]
b: COc1cc(C(=O)N[C@H]2CNCC[C@@H]2F)cc2nc(-c3cc4ccc5nc4n3CCCCC[C@@H]3CC[C@H]3C(=O)N[C@@H]5C)n(C)c12 (single isomer, unassigned) [Example 487]
## Input Higher pIC50: a or b ? Reply with the label of the item you choose.
## Output a
(a: 7.34, b: 7.09)

----------
- measuredTarget: human PAD4 (Homo sapiens, UniProt Q9UM07)
- Construct: human PAD4 (NM_012387), A2-P663, was PCR amplified; His-SUMO (N, cleaved yes)
- Sequence (Q9UM07 2-663): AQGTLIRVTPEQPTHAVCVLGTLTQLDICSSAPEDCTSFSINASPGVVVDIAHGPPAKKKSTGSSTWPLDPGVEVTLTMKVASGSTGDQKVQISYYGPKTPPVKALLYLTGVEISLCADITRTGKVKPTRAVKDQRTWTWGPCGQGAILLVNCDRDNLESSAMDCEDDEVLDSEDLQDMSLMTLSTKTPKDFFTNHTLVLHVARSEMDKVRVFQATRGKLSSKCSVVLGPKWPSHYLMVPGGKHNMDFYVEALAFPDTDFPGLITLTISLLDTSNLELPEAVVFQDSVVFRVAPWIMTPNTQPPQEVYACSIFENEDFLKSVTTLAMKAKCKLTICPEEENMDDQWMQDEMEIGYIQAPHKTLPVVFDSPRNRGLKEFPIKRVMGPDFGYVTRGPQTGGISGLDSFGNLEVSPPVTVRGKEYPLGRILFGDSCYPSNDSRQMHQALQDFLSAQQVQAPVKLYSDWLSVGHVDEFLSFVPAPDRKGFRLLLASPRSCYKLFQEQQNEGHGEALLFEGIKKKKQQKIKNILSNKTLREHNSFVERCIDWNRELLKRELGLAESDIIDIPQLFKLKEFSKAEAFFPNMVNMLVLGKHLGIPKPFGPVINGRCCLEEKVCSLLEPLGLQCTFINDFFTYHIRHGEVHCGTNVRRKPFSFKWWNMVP
- methodSummary: In vitro PAD4 BAEE biochemical assay
- measurementParameters: BAEE substrate 3 mM, 5 nM PAD4, 2 mM calcium chloride; geometric mean of multiple experiments
pIC50: −log10 of the molar value.
measuredQuantity: pIC50

## Input Param readout= pIC50; system= human PAD4 (Homo sapiens, UniProt Q9UM07); entry= C[C@H]1NC(=O)[C@@H]2C[C@H]2CCCCCn2c(-c3nc4cc(C(=O)N[C@H]5CNCC[C@@H]5F)c(F)cc4n3C3CC34CC4)cc3ccc1nc32 (stereo partly drawn) ; returns value.
## Output 7.51

A: COc1cc(C(=O)N2CCC[C@@H](N)C2)cc2nc(-c3cc4ccc5nc4n3CCCC#Cc3cnn(C)c3C(=O)N[C@@H]5C)n(C)c12
B: C[C@H]1NC(=O)c2cc(Cl)ncc2CCCCCn2c(-c3nc4cc(C(=O)N[C@H]5CNCC[C@@H]5F)c(F)cc4n3C3CC3)cc3ccc1nc32
## Input Given the listed items, does A or B have the lesser reported pIC50? Reply with the label of the item you choose.
## Output A

----------
- measuredTarget: human PAD4 (Homo sapiens, UniProt Q9UM07)
- Construct: human PAD4 (NM_012387), A2-P663, was PCR amplified; His-SUMO (N, cleaved yes)
- methodSummary: In vitro PAD4 BAEE biochemical assay
- measurementParameters: BAEE substrate 3 mM, 5 nM PAD4, 2 mM calcium chloride; geometric mean of multiple experiments
- Excerpt: In Vitro PAD4 BAEE Biochemical Assay The enzymatic activity of human PAD4 was monitored in a biochemical assay in the presence or absence of compounds using the small peptidyl arginine mimic BAEE (Na-Benzoyl-L-arginine ethyl ester hydrochloride) as substrate. PAD4 activity led to deimination of BAEE and release of ammonia. Levels of ammonia were monitored by using an amine coupling reaction and were indicative of PAD4 enzymatic activity. […]
measuredQuantity: IC50 (nM)

Example entries begin here.
## Input Param readout= IC50; system= human PAD4 (Homo sapiens, UniProt Q9UM07); entry= COc1cc(C(=O)N2CC[C@@H](OC)[C@@H](N)C2)cc2nc(-c3cc4ccc5nc4n3CCCCCc3nc(Cl)ccc3C(=O)N[C@@H]5C)n(C)c12 [Example 407] ; returns value.
## Output 70

## Input Param readout= IC50; system= human PAD4 (Homo sapiens, UniProt Q9UM07); entry= C[C@H]1NC(=O)C(C)(C)CCCCCCn2c(-c3nc4cc(C(=O)N[C@H]5CNCC[C@@H]5F)c(F)c(F)c4n3C)cc3ccc1nc32 [Example 538] ; returns value.
## Output 90

## Input Param readout= IC50; system= human PAD4 (Homo sapiens, UniProt Q9UM07); entry= COc1cc(C(=O)N2CC[C@@H](OC(F)F)[C@@H](N)C2)cc2nc(-c3cc4ccc5nc4n3CCCCCc3ccccc3C(=O)N[C@@H]5C)n(C)c12 [Example 491] ; returns value.
## Output 253

## Input Param readout= IC50; system= human PAD4 (Homo sapiens, UniProt Q9UM07); entry= COc1cc(C(=O)N2CCC[C@@H](N)C2)cc2nc(-c3cc4ccc5nc4n3CCCCCCCN(C)C(=O)N[C@@H]5C)c(C)n12 [Example 146] ; returns value.
## Output 47

## Input Param readout= IC50; system= human PAD4 (Homo sapiens, UniProt Q9UM07); entry= COc1cc(C(=O)N2C[C@H](N)[C@@H]3CC[C@H]2C3)cc2nc(-c3cc4ccc5nc4n3CC(F)(F)CCC[C@]3(F)C[C@H]3C(=O)N[C@@H]5C)n(C)c12 [Example 448] ; returns value.
## Output 26

## Input Param readout= IC50; system= human PAD4 (Homo sapiens, UniProt Q9UM07); entry= C[C@H]1NC(=O)[C@@H]2C[C@H]2CCCCCn2c(-c3nc4cc(C(=O)N[C@H]5CNCC[C@@H]5F)c(F)cc4n3CC3(C#N)CC3)cc3ccc1nc32 [Example 406] ; returns value.
## Output 22

A: COc1cc(C(=O)N2CC[C@@H](OC)[C@@H](N)C2)cc2nc(-c3cc4ccc5nc4n3CC/C=C\C[C@H]3C[C@H]3C(=O)N[C@@H]5C)n(C)c12 [Example 517]
B: C[C@H]1NC(=O)c2ccc(Cl)nc2CCCCCn2c(-c3nc4cc(C(=O)N5C[C@H](N)[C@@H]6CC[C@H]5[C@H]6F)cc(F)c4n3C3CC3)cc3ccc1nc32 [Example 669]
## Input Given the listed items, does A or B have the lesser reported IC50? Reply with the label of the item you choose.
## Output B
(B: 45 nM, A: 128 nM)

a: COc1cc(C(=O)N2C[C@H]3CC[C@@H]2[C@@H]3N)cc2nc(-c3cc4ccc5nc4n3CCCCCC[C@](C)(C(F)(F)F)C(=O)N[C@@H]5C)n(C)c12 [Example 724]
b: COc1cc(C(=O)N2[C@H]3CC[C@@H]2[C@H](N)C3)cc2nc(-c3cc4ccc5nc4n3C[C@H]3C[C@@H]3COCC(=O)N[C@@H]5C)c(C)n12 [Example 325]
c: C[C@H]1NC(=O)c2cnc(Cl)cc2CCCCCn2c(-c3nc4cc(C(=O)N5C[C@H](N)[C@@H]6CC[C@H]5C6)cc(F)c4n3C3CC3)cc3ccc1nc32 [Example 810]
## Input Put the items in sequence by IC50, from largest down. Provide the labels, sequenced as the question asks.
## Output a, c, b

P: COc1cc(C(=O)N2[C@H]3CC[C@@H]2[C@H](N)C3)cc2nc(-c3cc4ccc5nc4n3C[C@H]3C[C@H]3CC[C@H]3C[C@@H]3C(=O)N[C@@H]5C)n(C)c12 [Example 143]
Q: COc1cc(C(=O)N2CC[C@@H](OC)[C@@H](N)C2)cc2nc(-c3cc4ccc5nc4n3CCCCCC[C@@]3(CCCO3)C(=O)N[C@@H]5C)n(C)c12 [Example 687]
R: COc1cc(C(=O)N2CC[C@@H](OC)[C@@H](N)C2)cc2nc(-c3cc4ccc5nc4n3Cc3ccccc3C/C=C/CC(=O)N[C@@H]5C)n(C)c12 [Example 239]
S: COc1cc(C(=O)N2CC[C@@H](OC)[C@@H](N)C2)cc2nc(-c3cc4ccc5nc4n3CC(F)(F)CCC[C@@H]3C[C@H]3C(=O)N(CC(F)F)[C@@H]5C)n(C)c12 [Example 867]
T: COc1cc(C(=O)N[C@H]2CNCC(F)(F)C2)cc2nc(-c3cc4ccc5nc4n3CCCCCCC(C)(C)C(=O)N[C@@H]5C)n(C)c12 [Example 63]
## Input Rank ascending by IC50. Provide the labels, sequenced as the question asks.
## Output S, Q, P, R, T
